# SYSTEM: CDK2/CycE (Homo sapiens (Human))
# PROTOCOL DESCRIPTION: CDK2/CycE kinase assay (TR-FRET)
# CONDITION SUMMARY: 10 μM ATP; read-out: CDK2 avg (IC50 [mol/l])
pIC50: −log10 of the molar value.
Listing: pIC50 of selected molecules
PROPERTY NAME: pIC50

GIVEN SMILES | SYSTEM | RESULT
CNC(=O)c1cncc(Nc2snc(C)c2C(=O)Nc2ccc(F)c(F)c2)n1 | CDK2/CycE (Homo sapiens (Human)) | < 4.70
COc1ncc(NC(=O)c2c(C)nsc2Nc2cnc3ccccc3n2)cc1C | CDK2/CycE (Homo sapiens (Human)) | < 4.70
Cc1nsc(Nc2cc(C#N)ccn2)c1C(=O)Nc1ccc(OC2CCCCC2)nc1 | CDK2/CycE (Homo sapiens (Human)) | < 4.70
CCNC(=O)c1csc(Nc2snc(C)c2C(=O)Nc2ccc(F)c(F)c2)n1 | CDK2/CycE (Homo sapiens (Human)) | < 4.70
Cc1cncc(Nc2snc(C)c2C(=O)Nc2ccc(F)c(F)c2)n1 | CDK2/CycE (Homo sapiens (Human)) | < 4.70

---

Listing: IC50 of selected molecules
# Test system: spindle assembly checkpoint
# PROTOCOL DESCRIPTION: SAC-Formation - Paclitaxel-Induced Assay
# Format: cell-based
# CONDITION SUMMARY: Homo sapiens; HeLa cells, paclitaxel 0.05 μM, 24 h, phosphorylated histone H3 on serine 10
PROPERTY NAME: IC50 (µM)

GIVEN SMILES | MEASURED NUMBER
COc1ccc(NC(=O)c2c(C)nsc2Nc2cc(C#N)ccn2)cn1 | 1.2
Cc1nsc(Nc2cc(C#N)ccn2)c1C(=O)Nc1ccc(Oc2ccccc2)nc1 | 1.8
Cc1nsc(Nc2cnc3ccccc3n2)c1C(=O)Nc1ccc(OC2CCCCC2)nc1 | 0.12
CCc1ccccc1NC(=O)c1c(C)nsc1Nc1cnc2ccc(Cl)cc2n1 | 0.81
CCc1ccccc1NC(=O)c1c(C)nsc1Nc1cc(C(F)(F)F)ccn1 | 2
CCOC(=O)c1cnc(Nc2snc(C)c2C(=O)Nc2ccc(OC)nc2)s1 | 0.7
Cc1nsc(Nc2cnc(C(F)(F)F)cn2)c1C(=O)Nc1ccc(F)c(F)c1 | 0.016
Cc1nsc(Nc2cnccn2)c1C(=O)Nc1ccc(Cl)c(F)c1 | 0.25
Cc1nsc(Nc2cnc3cc(C(F)(F)F)ccc3n2)c1C(=O)Nc1ccc(F)c(F)c1 | 0.042
COc1ccc(NC(=O)c2c(C)nsc2Nc2cnc3cc(Cl)ccc3n2)cn1 | 0.5
COc1ccc(NC(=O)c2c(C)nsc2Nc2cccc(C#N)n2)cn1 | 0.57
COc1ccc(NC(=O)c2c(C)nsc2Nc2ncccc2C#N)cn1 | 3.7
CCOC(=O)c1sc(Nc2snc(C)c2C(=O)Nc2ccccc2CC)nc1C | 0.25
CCc1ccccc1NC(=O)c1c(C)nsc1Nc1ccc(C#N)cn1 | 2.5
CCOC(=O)c1sc(Nc2snc(C)c2C(=O)Nc2ccc(Cl)c(F)c2)nc1C | 0.51
Cc1nsc(Nc2cnc3ccccc3n2)c1C(=O)Nc1ccc(OC(C)C)nc1 | 0.88
COc1ccc(NC(=O)c2c(C)nsc2Nc2cnc3ccc(Cl)cc3n2)cn1 | 0.89
CCc1ccccc1NC(=O)c1c(C)nsc1Nc1ccnc(C#N)n1 | 1.2
COc1ccc(NC(=O)c2c(C)nsc2Nc2cnc3ccc(F)cc3n2)cn1 | 0.49
CCOC(=O)c1cnc(Nc2snc(C)c2C(=O)Nc2ccccc2CC)s1 | 5.6
COc1cncc(Nc2snc(C)c2C(=O)Nc2ccc(F)c(F)c2)n1 | 20
Cc1nsc(Nc2ccc(C#N)cn2)c1C(=O)Nc1ccc(F)c(F)c1 | 0.072
CCc1cnc(Nc2snc(C)c2C(=O)Nc2ccc(F)c(F)c2)cn1 | 0.15

---

Listing: IC50 of selected compounds
# Tested on: spindle assembly checkpoint
# PROTOCOL DESCRIPTION: SAC-Formation - Nocodazole-Induced Assay
# Format: cell-based
# CONDITION SUMMARY: Homo sapiens; HeLa cells, nocodazole 0.1 μg/ml, 24 h, phosphorylated histone H3 on serine 10
# From the text: The spindle assembly checkpoint assures the proper segregation of chromosomes during mitosis. Upon entry into mitosis, chromosomes begin to condensate which is accompanied by the phosphorylation of histone H3 on serine 10. Dephosphorylation of histone H3 on serine 10 begins in anaphase and ends at early telophase. […] The mitotic breakthrough can be detected by the decrease of cells with phosphorylation of histone H3 on serine 10. […]

GIVEN SMILES | INEQUALITY OPERATOR | IC50 [µM]
COc1ccc(NC(=O)c2c(C)nsc2Nc2cnc3c(F)c(F)ccc3n2)cn1 | = | 0.034
Cc1nsc(Nc2cncc(-n3cccn3)n2)c1C(=O)Nc1ccc(Cl)c(F)c1 | = | 0.012
Cc1nsc(Nc2cnc3cc(C(F)(F)F)ccc3n2)c1C(=O)Nc1ccc(F)c(F)c1 | = | 0.04
CCc1ccccc1NC(=O)c1c(C)nsc1Nc1ncc(OC)cn1 | = | 16
COc1ccc(NC(=O)c2c(C)nsc2Nc2ncc(C(N)=O)s2)cn1 | > | 20
COc1ccc(NC(=O)c2c(C)nsc2Nc2nc3c(C(F)(F)F)cccc3s2)cn1 | = | 0.13
COc1ccc(NC(=O)c2c(C)nsc2Nc2cnc3ccc(Cl)cc3n2)cn1 | = | 0.26
COc1ccc(NC(=O)c2c(C)nsc2Nc2ncc(C(=O)N3CCOCC3)s2)cn1 | = | 13
COc1ccc(NC(=O)c2c(C)nsc2Nc2ncc(C#N)s2)cn1 | = | 4.2
CCc1ccccc1NC(=O)c1c(C)nsc1Nc1ncnc2sccc12 | = | 2
COC(=O)c1ccc(Nc2snc(C)c2C(=O)Nc2ccc(OC)nc2)nc1 | = | 5.5
COC(=O)c1cnc(Nc2snc(C)c2C(=O)Nc2ccc(OC)nc2)cn1 | = | 0.51
CCNC(=O)c1cncc(Nc2snc(C)c2C(=O)Nc2ccc(F)c(F)c2)n1 | = | 0.23
CCc1cncc(Nc2snc(C)c2C(=O)Nc2ccc(F)c(F)c2)n1 | = | 0.052
COc1cncc(Nc2snc(C)c2C(=O)Nc2ccc(F)c(F)c2)n1 | = | 0.35
CCc1ccccc1NC(=O)c1c(C)nsc1Nc1cc(C(=O)OC)ccn1 | = | 4.1
CCc1ccccc1NC(=O)c1c(C)nsc1Nc1nc2ccccc2nc1C | = | 0.28
Cc1nsc(Nc2cncc(C(=O)N3CCOCC3)n2)c1C(=O)Nc1ccc(F)c(F)c1 | = | 0.34

---

Listing: pIC50 of selected molecules
# Test system: spindle assembly checkpoint
# PROTOCOL DESCRIPTION: SAC-Formation - Nocodazole-Induced Assay
# Type: cell-based
# CONDITION SUMMARY: Homo sapiens; HeLa cells, nocodazole 0.1 μg/ml, 24 h, phosphorylated histone H3 on serine 10
pIC50: −log10 of the molar value.

GIVEN SMILES | pIC50
COC(=O)c1cnc(Nc2snc(C)c2C(=O)Nc2ccc(F)c(F)c2)o1 | 5.23
CCc1ccccc1NC(=O)c1c(C)nsc1Nc1nccnc1C#N | 6.02
Cc1nsc(Nc2cncc(C(=O)N3CCCC3)n2)c1C(=O)Nc1ccc(F)c(F)c1 | 6.59
CCc1ccccc1NC(=O)c1c(C)nsc1Nc1nccc(OC)n1 | 5.01
Cc1nsc(Nc2nc3c(C(F)(F)F)cccc3s2)c1C(=O)Nc1ccc(Cl)c(F)c1 | 6.47
COc1ccc2nc(Nc3snc(C)c3C(=O)Nc3ccc(OC)nc3)sc2c1 | 6.23

---

# Tested on: HeLa
# PROTOCOL DESCRIPTION: Proliferation assay (crystal violet), HeLa
# Format: cell-based
# CONDITION SUMMARY: Homo sapiens, 96 h, 4 days, read-out: Inhibition of proliferation IC50 HeLa
pIC50: −log10 of the molar value.
PROPERTY NAME: pIC50

GIVEN SMILES | RESULT
CCc1ccccc1NC(=O)c1c(C)nsc1Nc1nccc(OC)n1 | < 5.00
COC(=O)c1ccc(Nc2snc(C)c2C(=O)Nc2ccc(OC)nc2)nc1 | < 5.00
CCc1ccccc1NC(=O)c1c(C)nsc1Nc1ncccc1C#N | < 5.00

---

Listing: pIC50 of selected compounds
# Tested on: NCI-H460
# PROTOCOL DESCRIPTION: Proliferation assay (crystal violet), NCI-H460
# Type: cell-based
# CONDITION SUMMARY: Homo sapiens, 96 h; NCI-H460, 4 days; read-out: Inhibition of proliferation IC50 NCI-H460
pIC50: −log10 of the molar value.

COMPOUND | pIC50
COc1ccc(NC(=O)c2c(C)nsc2Nc2nc3c(C(F)(F)F)cccc3s2)cn1 [Example 48] | 6.68
CNC(=O)c1cnc(Nc2snc(C)c2C(=O)Nc2ccc(F)c(F)c2)cn1 [Example 75] | 5.54
CCc1ccccc1NC(=O)c1c(C)nsc1Nc1cnc2cccc(C)c2n1 [Example 33] | 5.92
Cc1nsc(Nc2cnc3cc(F)ccc3n2)c1C(=O)Nc1ccc(F)c(F)c1 [Example 46] | 7.07
CCc1ccccc1NC(=O)c1c(C)nsc1Nc1cnc2ccccc2n1 [Example 19] | 5.82
Cc1nsc(Nc2cnc3ccccc3n2)c1C(=O)Nc1ccc(F)c(F)c1 [Example 50] | 6.28
Cc1nsc(Nc2cc(C#N)ccn2)c1C(=O)Nc1ccc(Cl)c(F)c1 [Example 54] | 6.68
CCc1cnc(Nc2snc(C)c2C(=O)Nc2ccc(F)c(F)c2)cn1 [Example 79] | 6.47
COc1ccc(NC(=O)c2c(C)nsc2Nc2cnc3cccc(C)c3n2)cn1 [Example 22] | 6.10
CCc1ccccc1NC(=O)c1c(C)nsc1Nc1ccnc(C#N)n1 [Example 6] | 5.68
Cc1nsc(Nc2cc(C#N)ccn2)c1C(=O)Nc1ccc(Oc2ccc(F)cc2F)nc1 [Example 114] | 6.28
Cc1nsc(Nc2cc(C#N)ccn2)c1C(=O)Nc1ccc(F)c(F)c1 [Example 27] | 6.66
COc1ccc(NC(=O)c2c(C)nsc2Nc2nc3c(C(F)(F)F)cccc3s2)cc1F [Example 47] | 6.74
Cc1nsc(Nc2cnccn2)c1C(=O)Nc1ccc(Cl)c(F)c1 [Example 56] | 6.43
Cc1nsc(Nc2ccc(C#N)cn2)c1C(=O)Nc1ccc(Cl)c(Cl)c1 [Example 62] | 6.85
COc1ccc(NC(=O)c2c(C)nsc2Nc2cnc(C(F)(F)F)cn2)cn1 [Example 85] | 6.38
Cc1nsc(Nc2cnc(Cl)cn2)c1C(=O)Nc1ccc(F)c(F)c1 [Example 74] | 6.92
Cc1nsc(Nc2nc3c(C(F)(F)F)cccc3s2)c1C(=O)Nc1ccc(F)c(F)c1 [Example 51] | 6.55
Cc1nsc(Nc2cncc(C(F)(F)F)n2)c1C(=O)Nc1ccc(F)c(F)c1 [Example 82] | 7.25
CCc1ccccc1NC(=O)c1c(C)nsc1Nc1cc(C#N)ccn1 [Example 4] | 5.70
CCNc1cncc(Nc2snc(C)c2C(=O)Nc2ccc(F)c(F)c2)n1 [Example 78] | 5.52
COc1ccc(NC(=O)c2c(C)nsc2Nc2cncc(C(F)(F)F)n2)cn1 [Example 84] | 6.74
COc1ccc(NC(=O)c2c(C)nsc2Nc2cnc3c(F)c(F)ccc3n2)cn1 [Example 43] | 6.89
Cc1nsc(Nc2ccc(C(F)(F)F)nn2)c1C(=O)Nc1ccc(F)c(F)c1 [Example 83] | 6.59
CCc1ccccc1NC(=O)c1c(C)nsc1Nc1cnc2cc(F)ccc2n1 [Example 20] | 6.36
Cc1nsc(Nc2cnc(Br)cn2)c1C(=O)Nc1ccc(F)c(F)c1 [Example 77] | 6.74
Cc1nsc(Nc2cnc3ccccc3n2)c1C(=O)Nc1ccc(Cl)c(F)c1 [Example 40] | 6.54
CCNC(=O)c1cncc(Nc2snc(C)c2C(=O)Nc2ccc(F)c(F)c2)n1 [Example 73] | 6.21
Cc1nsc(Nc2cnc3cc(C(F)(F)F)ccc3n2)c1C(=O)Nc1ccc(F)c(F)c1 [Example 60] | 6.64
Cc1nsc(Nc2ccc(C#N)cn2)c1C(=O)Nc1ccc(Cl)c(F)c1 [Example 52] | 6.89
Cc1nsc(Nc2ccc(C#N)cn2)c1C(=O)Nc1ccc(F)c(F)c1 [Example 28] | 7.00
